Measured pIC50, listed per entry for reference.
Study target: full-length human CSNK1A1 (Homo sapiens, UniProt P48729)
Construct: N-terminal Glutathion-S-Transferase (GST) and full-length human CSNK1A1; purchased Life Technologies PV4174; host or cells: baculovirus infected insect cells
Sequence (P48729 whole entry): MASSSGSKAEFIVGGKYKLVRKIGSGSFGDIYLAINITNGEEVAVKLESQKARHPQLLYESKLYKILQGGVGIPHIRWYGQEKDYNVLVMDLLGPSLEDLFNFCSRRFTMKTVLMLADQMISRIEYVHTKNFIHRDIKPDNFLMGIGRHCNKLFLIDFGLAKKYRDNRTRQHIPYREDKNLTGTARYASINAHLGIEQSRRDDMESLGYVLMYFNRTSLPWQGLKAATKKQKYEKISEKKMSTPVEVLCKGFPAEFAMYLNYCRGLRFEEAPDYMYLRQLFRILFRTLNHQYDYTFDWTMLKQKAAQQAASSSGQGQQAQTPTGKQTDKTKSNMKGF
Method notes: CSNK1A1 Assay 2 (ADP-Glo, 1 μM ATP, substrate biotin-Ahx-KRRRAL-pS-VASLPGL)
Format: biochemical
Experimental context: Table 3, read-out: CSNK1A1 Assay 2 IC50 [mol/l] (median)
pIC50: −log10 of the molar value.
Value kind: pIC50

>>> reported_result("O=C(Nc1cc(-c2[nH]c3ncc(F)nc3c2-c2ccccn2)ccn1)C(CC(F)F)c1ccc(F)cc1 (single isomer, unassigned) [Example 63]")
8.83
>>> reported_result("O=C(Nc1cc(-c2[nH]c3cc(Cl)cnc3c2-c2ccccn2)ccn1)C(CC(F)F)c1ccc(F)cc1 (stereo not drawn) [Example 87]")
8.22
>>> reported_result("CC(C)(O)c1cc(F)nc2c(-c3ccccn3)c(-c3ccnc(NC(=O)C(CC(F)F)c4ccc(F)cc4)c3)[nH]c12 (single isomer, unassigned) [Example 99]")
8.45

---

compounds and their reported pIC50
Study target: full-length human CSNK1D (Homo sapiens, UniProt P48730)
Sequence (P48730 whole entry): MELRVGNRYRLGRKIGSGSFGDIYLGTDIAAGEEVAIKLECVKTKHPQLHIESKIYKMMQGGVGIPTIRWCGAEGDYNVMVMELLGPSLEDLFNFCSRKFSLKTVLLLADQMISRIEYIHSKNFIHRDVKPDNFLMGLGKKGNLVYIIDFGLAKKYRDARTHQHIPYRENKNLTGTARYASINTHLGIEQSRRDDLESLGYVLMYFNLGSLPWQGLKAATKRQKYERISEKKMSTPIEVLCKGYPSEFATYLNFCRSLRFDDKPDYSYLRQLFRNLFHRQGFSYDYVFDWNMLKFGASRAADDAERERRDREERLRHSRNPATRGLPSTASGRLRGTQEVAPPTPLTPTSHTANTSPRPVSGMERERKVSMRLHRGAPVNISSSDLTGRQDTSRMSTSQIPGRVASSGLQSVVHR
pIC50: −log10 of the molar value.
Value kind: pIC50

>>> reported_result("O=C(Nc1cc(-c2[nH]c3c(OC4CC4)cc(F)nc3c2-c2ccccn2)ccn1)C(CC(F)F)c1ccc(F)cc1 (racemic) [Example 42]")
7.84
>>> reported_result("O=C(Nc1cc(-c2[nH]c3c(OC[C@H]4COCCO4)cc(F)nc3c2-c2ccccn2)ccn1)C(CC(F)F)c1ccc(F)cc1 (mixture of isomers) [Example 50]")
8.04
>>> reported_result("O=C(Nc1cc(-c2[nH]c3c(OCC4CCCO4)cc(F)nc3c2-c2ccccn2)ccn1)C(CC(F)F)c1ccc(F)cc1 (racemic)")
8.06
>>> reported_result("O=C(Nc1cc(-c2[nH]c3ccnnc3c2-c2ccccn2)ccn1)C(CC(F)F)c1ccc(F)cc1 (single isomer, unassigned) [Example 66]")
8.34
>>> reported_result("O=C(Nc1cc(-c2[nH]c3c(OCC(F)F)cc(F)nc3c2-c2ccccn2)ccn1)C(CC(F)F)c1ccc(F)cc1 (single isomer, unassigned) [Example 29]")
8.63
>>> reported_result("COc1cc(F)nc2c(-c3ccccn3)c(-c3ccnc(NC(=O)C(CC(F)F)c4ccc(F)cc4)c3)[nH]c12 (single isomer, unassigned; (+)) [Example 40]")
8.25

---

Study target: full-length human CSNK1A1 (Homo sapiens)
Construct: N-terminal Glutathion-S-Transferase (GST) and full-length human CSNK1A1; purchased Life Technologies PV4174; host or cells: baculovirus infected insect cells
Method notes: CSNK1A1 High ATP Assay (ADP-Glo, 1 mM ATP);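 note: 30 min kinase reaction at 22 °C with 100 µM peptide substrate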
Type: biochemical
Experimental context: Table 3, read-out: CSNK1A1 high ATP assay IC50 [mol/l] (median)
So basically: is IC50 under 5 nM? Then criterion met. Not under? Then criterion not met.

>>> cat("O=C(Nc1cc(-c2[nH]c3c(OCC(F)(F)F)ncnc3c2-c2ccccn2)ccn1)C(CC(F)(F)F)c1ccc(F)cc1 (racemic) [Example 125]")
"criterion not met"
>>> cat("O=C(Nc1cc(-c2[nH]c3ncc(F)nc3c2-c2ccccn2)ccn1)C(CC(F)F)c1ccc(F)cc1 (single isomer, unassigned) [Example 63]")
"criterion met"
>>> cat("COc1cnc2c(-c3ccccn3)c(-c3ccnc(NC(=O)C(CC(F)F)c4ccc(F)cc4)c3)[nH]c2n1 (stereo not shown) [Example 101]")
"criterion met"
>>> cat("CC(C)(O)c1cc(F)nc2c(-c3ccccn3)c(-c3ccnc(NC(=O)C(CC(F)F)c4ccc(F)cc4)c3)[nH]c12 (racemic) [Example 98]")
"criterion not met"
>>> cat("Cc1cnc2c(-c3ccccn3)c(-c3ccnc(NC(=O)C(CC(F)F)c4ccc(F)cc4)c3)[nH]c2c1 (single isomer, unassigned) [Example 9]")
"criterion not met"
>>> cat("O=C(Nc1cc(-c2[nH]c3nc(OC(F)F)cnc3c2-c2ccccn2)ccn1)C(CC(F)F)c1ccc(F)cc1 (single isomer, unassigned) [Example 107]")
"criterion not met"
>>> cat("O=C(Nc1cc(-c2[nH]c3cccnc3c2-c2ccccn2)ccn1)C(CC(F)F)c1ccc(F)cc1 (racemic) [Example 10]")
"criterion not met"
>>> cat("Cc1ccnc2c(-c3ccccn3)c(-c3ccnc(NC(=O)C(CC(F)F)c4ccc(F)cc4)c3)[nH]c12 (stereo not shown) [Example 84]")
"criterion met"
>>> cat("O=C(Nc1cc(-c2[nH]c3c(OCC(F)F)ncnc3c2-c2ccccn2)ccn1)C(CC(F)F)c1ccc(F)cc1 (single isomer, unassigned) [Example 79]")
"criterion met"
>>> cat("O=C(Nc1cc(-c2[nH]c3c(N4CCNCC4)ccnc3c2-c2ccccn2)ccn1)C(CC(F)F)c1ccc(F)cc1 (racemic) [Example 92]")
"criterion met"
>>> cat("Cc1ccc2[nH]c(-c3ccnc(NC(=O)C(CC(F)F)c4ccc(F)cc4)c3)c(-c3ccccn3)c2n1 (single isomer, unassigned) [Example 5]")
"criterion not met"
>>> cat("O=C(Nc1cc(-c2[nH]c3cccnc3c2-c2ccccn2)ccn1)C(CC(F)F)c1ccc(F)cc1 (single isomer, unassigned; (+)) [Example 11]")
"criterion not met"

---

Study target: full-length human CSNK1A1 (Homo sapiens)
Construct: N-terminal Glutathion-S-Transferase (GST) and full-length human CSNK1A1; purchased Life Technologies PV4174; host or cells: baculovirus infected insect cells
Method notes: CSNK1A1 Assay 2 (ADP-Glo, 1 μM ATP, substrate biotin-Ahx-KRRRAL-pS-VASLPGL)
Type: biochemical
Experimental context: Table 3, read-out: CSNK1A1 Assay 2 IC50 [mol/l] (median)
pIC50: −log10 of the molar value.
Overview of recorded pIC50 for various compounds
Value kind: pIC50

>>> reported_result("O=C(Nc1cc(-c2[nH]c3nccnc3c2-c2ccccn2)ccn1)C(CC(F)F)c1ccc(F)cc1 (racemic)")
8.52
>>> reported_result("O=C(Nc1cc(-c2[nH]c3c(OCC(F)(F)F)ncnc3c2-c2ccccn2)ccn1)C(CC(F)F)c1ccc(F)cc1 (single isomer, unassigned) [Example 123]")
8.35
>>> reported_result("O=C(Nc1cc(-c2[nH]c3c(O[C@H]4CCOC4)ncnc3c2-c2ccccn2)ccn1)C(CC(F)F)c1ccc(F)cc1 (mixture of isomers) [Example 72]")
8.15
>>> reported_result("O=C(Nc1cc(-c2[nH]c3c(C4CCCO4)cc(F)nc3c2-c2ccccn2)ccn1)C(CC(F)F)c1ccc(F)cc1 (single isomer, unassigned) [Example 118]")
7.17
>>> reported_result("O=C(Nc1cc(-c2[nH]c3c(O[C@H]4CCOC4)cc(F)nc3c2-c2ccccn2)ccn1)C(CC(F)F)c1ccc(F)cc1 (single isomer, unassigned) [Example 54]")
8.37
>>> reported_result("O=C(Nc1cc(-c2[nH]c3c(OC[C@@H]4COCCO4)cc(F)nc3c2-c2ccccn2)ccn1)C(CC(F)F)c1ccc(F)cc1 (mixture of isomers) [Example 57]")
8.10

---

Study target: full-length human CSNK1A1 (Homo sapiens, UniProt P48729)
Construct: N-terminal Glutathion-S-Transferase (GST) and full-length human CSNK1A1; purchased Life Technologies PV4174; host or cells: baculovirus infected insect cells
Method notes: CSNK1A1 High ATP Assay (ADP-Glo, 1 mM ATP);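 note: 30 min kinase reaction at 22 °C with 100 µM peptide substrate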
Assay type: biochemical
Experimental context: Table 3, read-out: CSNK1A1 high ATP assay IC50 [mol/l] (median)
Value kind: log10 IC50 (log10 of the value in nM)

>>> reported_result("O=C(Nc1cc(-c2[nH]c3ccnnc3c2-c2ccccn2)ccn1)C(CC(F)F)c1ccc(F)cc1 (single isomer, unassigned) [Example 67]")
1.34
>>> reported_result("O=C(Nc1cc(-c2[nH]c3nc(OC(F)F)cnc3c2-c2ccccn2)ccn1)C(CC(F)F)c1ccc(F)cc1 (single isomer, unassigned) [Example 106]")
0.64
>>> reported_result("O=C(Nc1cc(-c2[nH]c3ccc(F)nc3c2-c2ccc(F)cn2)ccn1)C(CC(F)F)c1ccc(F)cc1 (single isomer, unassigned; (+)) [Example 109]")
0.50
>>> reported_result("O=C(Nc1cc(-c2[nH]c3c(CC4CC4)cc(F)nc3c2-c2ccccn2)ccn1)C(CC(F)F)c1ccc(F)cc1 (racemic) [Example 46]")
1.37
>>> reported_result("O=C(Nc1cc(-c2[nH]c3cc(F)cnc3c2-c2ccccn2)ccn1)C(CC(F)F)c1ccc(F)cc1 (single isomer, unassigned; (+)) [Example 17]")
0.74
>>> reported_result("O=C(Nc1cc(-c2[nH]c3cccnc3c2-c2ccccn2)ccn1)C(CC(F)F)c1ccc(F)cc1 (single isomer, unassigned; (-)) [Example 12]")
2.93
>>> reported_result("O=C(Nc1cc(-c2[nH]c3cc(Cl)cnc3c2-c2ccccn2)ccn1)C(CC(F)F)c1ccc(F)cc1 (single isomer, unassigned) [Example 88]")
0.67
>>> reported_result("O=C(Nc1cc(-c2[nH]c3cncnc3c2-c2ccccn2)ccn1)C(CC(F)F)c1ccc(F)cc1 (racemic) [Example 13]")
2.38
>>> reported_result("O=C(Nc1cc(-c2[nH]c3c(O[C@H]4CCOC4)ncnc3c2-c2ccccn2)ccn1)C(CC(F)F)c1ccc(F)cc1 (single isomer, unassigned) [Example 73]")
0.62
>>> reported_result("O=C(Nc1cc(-c2[nH]c3c(OC[C@H]4COCCO4)cc(F)nc3c2-c2ccccn2)ccn1)C(CC(F)F)c1ccc(F)cc1 (single isomer, unassigned) [Example 51]")
0.67
>>> reported_result("O=C(Nc1cc(-c2[nH]c3c(OCC(F)F)ccnc3c2-c2ccccn2)ccn1)C(CC(F)F)c1ccc(F)cc1 (single isomer, unassigned) [Example 76]")
0.47
>>> reported_result("O=C(Nc1cc(-c2[nH]c3nc(F)cnc3c2-c2ccccn2)ccn1)C(CC(F)F)c1ccc(F)cc1 (racemic) [Example 60]")
0.76
>>> reported_result("O=C(Nc1cc(-c2[nH]c3c(CC4CC4)cc(F)nc3c2-c2ccccn2)ccn1)C(CC(F)F)c1ccc(F)cc1 (single isomer, unassigned) [Example 48]")
1.00
>>> reported_result("O=C(Nc1cc(-c2[nH]c3cncnc3c2-c2ccccn2)ccn1)C(CC(F)F)c1ccc(F)cc1 (single isomer, unassigned; (+)) [Example 15]")
1.49
>>> reported_result("O=C(Nc1cc(-c2[nH]c3cc(F)cnc3c2-c2ccccc2)ccn1)C(CC(F)F)c1ccc(F)cc1 (single isomer, unassigned; (+)) [Example 21]")
2.36
>>> reported_result("O=C(Nc1cc(-c2[nH]c3cccnc3c2-c2cccc(F)n2)ccn1)C(CC(F)F)c1ccc(F)cc1 (single isomer, unassigned; (+)) [Example 27]")
0.19
>>> reported_result("O=C(Nc1cc(-c2[nH]c3c(OCC4CC4)ncnc3c2-c2ccccn2)ccn1)C(CC(F)F)c1ccc(F)cc1 (single isomer, unassigned) [Example 129]")
1.01
>>> reported_result("O=C(Nc1cc(-c2[nH]c3c(OC[C@@H]4COCCO4)cc(F)nc3c2-c2ccccn2)ccn1)C(CC(F)F)c1ccc(F)cc1 (single isomer, unassigned) [Example 59]")
1.10
>>> reported_result("O=C(Nc1cc(-c2[nH]c3c(OC[C@H]4COCCO4)cc(F)nc3c2-c2ccccn2)ccn1)C(CC(F)F)c1ccc(F)cc1 (single isomer, unassigned) [Example 52]")
1.24
>>> reported_result("COc1cnc2c(-c3ccccn3)c(-c3ccnc(NC(=O)C(CC(F)F)c4ccc(F)cc4)c3)[nH]c2c1 (single isomer, unassigned) [Example 83]")
0.99
>>> reported_result("O=C(Nc1cc(-c2[nH]c3c(O[C@H]4CCOC4)ncnc3c2-c2ccccn2)ccn1)C(CC(F)F)c1ccc(F)cc1 (mixture of isomers) [Example 72]")
0.85
>>> reported_result("O=C(Nc1cc(-c2[nH]c3c(OCC4CCCO4)cc(F)nc3c2-c2ccccn2)ccn1)C(CC(F)F)c1ccc(F)cc1 (racemic) [Example 61]")
1.05
>>> reported_result("O=C(Nc1cc(-c2[nH]c3c(O[C@H]4CCOC4)cc(F)nc3c2-c2ccccn2)ccn1)C(CC(F)F)c1ccc(F)cc1 (single isomer, unassigned) [Example 55]")
1.26
